These measurements were taken from patent US6737383B1.

What Plant response rating, Rape was measured for each of the following?
- System: rape
- Experiment Notes: Test B pre/postemergence rape
- Type: in vivo, Brassica napus
- Setup Conditions: Postemergence, Rate 500 g/ha; scale 0 to 10, 0 is no effect, 10 is complete control
Answer field: number only, no words.

Notebook: CCC(=O)Cn1c(=O)on(C(=O)N(c2ccc(F)cc2F)C(C)C)c1=O [Compound 524] , Plant response rating, Rape read as 3

Notebook: CC(C)N(C(=O)n1oc(=O)n(CC2CCC2)c1=O)c1ccc(Cl)cc1 [Compound 550] , Plant response rating, Rape read as 3

Notebook: CC(C)N(C(=O)n1oc(=O)n(CCC2OCCCO2)c1=O)c1ccc(Cl)cc1 [Compound 532] , Plant response rating, Rape read as 2

Notebook: CC(C)N(C(=O)n1oc(=O)n(CCCF)c1=O)c1ccc(F)cc1F [Compound 500] , Plant response rating, Rape read as 8

Notebook: CC(=O)OCCCCn1c(=O)on(C(=O)N(c2ccc(F)cc2F)C(C)C)c1=O [Compound 506] , Plant response rating, Rape read as 7
